ASSAY NAME: in vitro
EXPERIMENTAL CONDITIONS: human, hela cells, % viability

>  <COMPOUND>
N#Cc1c(NC(=S)NC(=O)c2ccc(-c3cccc([N+](=O)[O-])c3)o2)sc2c1CCCC2

>  <viability at 28.5 h, 10 µM (%)>
92

$$$$
>  <COMPOUND>
CC1CCCCN1C(=O)Cn1ncn2c(cc3ccsc32)c1=O (stereo not shown)

>  <viability at 28.5 h, 10 µM (%)>
92.1

$$$$
>  <COMPOUND>
COc1cccc(OC)c1-c1cn2ccnc2c(NCc2ccccn2)n1

>  <viability at 28.5 h, 10 µM (%)>
93.7

$$$$
>  <COMPOUND>
Cc1cc(=O)oc2cc(NC(=S)NNC(=O)C(C)Sc3nc4ccccc4s3)ccc12 (stereo not shown)

>  <viability at 28.5 h, 10 µM (%)>
102

$$$$
>  <COMPOUND>
CCn1ncnc1CN(c1cccc(CO)c1)C1Cc2ccccc2C1

>  <viability at 28.5 h, 10 µM (%)>
111

$$$$
>  <COMPOUND>
CCc1cc2c(=O)c(-c3cnn(-c4ccccc4)c3)c(C(F)(F)F)oc2c(CN2CCCCC2)c1O

>  <viability at 28.5 h, 10 µM (%)>
91.7

$$$$
>  <COMPOUND>
O=C(O)Cn1nnnc1CN1CCc2ccccc2C1

>  <viability at 28.5 h, 10 µM (%)>
94.3

$$$$

* * *

ASSAY NAME: in vitro
EXPERIMENTAL CONDITIONS: human, hela cells, % viability
viability at 28.5 h, 10 µM for assorted molecules

>  <MOLECULE>
O=C(CCc1nc2ccccc2nc1O)OCc1cccc([N+](=O)[O-])c1

>  <viability at 28.5 h, 10 µM / %>
85

$$$$
>  <MOLECULE>
O=C(O)c1ccc2c(c1)C(=O)N(c1ccc(-c3nc(-c4ccccc4)c4ccccc4n3)cc1)C2=O

>  <viability at 28.5 h, 10 µM / %>
101

$$$$
>  <MOLECULE>
COc1cc(CC(=O)Nc2cccc(-c3ccc(OC4CCNCC4)cc3)n2)cc(OC)c1OC

>  <viability at 28.5 h, 10 µM / %>
83.4

$$$$
>  <MOLECULE>
O=C(Nc1ccc(Br)cc1C(=O)O)c1cccc(C(=O)Nc2ccc(Br)cc2C(=O)O)c1

>  <viability at 28.5 h, 10 µM / %>
90.5

$$$$
>  <MOLECULE>
CC(=O)Nc1ccc(S(N)(=O)=O)cc1Cl

>  <viability at 28.5 h, 10 µM / %>
109

$$$$
>  <MOLECULE>
CC(C)NC(=O)C1CC2CCC1(C)CC21NC(=O)c2ccccc2O1 (stereo not shown)

>  <viability at 28.5 h, 10 µM / %>
92

$$$$
>  <MOLECULE>
OC1(c2cccnc2)CCCN(Cc2ccccc2F)CC1 (stereo not shown)

>  <viability at 28.5 h, 10 µM / %>
96.4

$$$$
>  <MOLECULE>
CCc1c(-c2cccc(C(=O)N3CCS(=O)(=O)CC3)c2)cnn1C

>  <viability at 28.5 h, 10 µM / %>
75.3

$$$$
>  <MOLECULE>
CCN(CC)CCNC(=O)c1cc(O)nc2ccccc12

>  <viability at 28.5 h, 10 µM / %>
99.6

$$$$
>  <MOLECULE>
COc1ccc(Nc2cc(Cl)ccc2C(=O)O)cn1

>  <viability at 28.5 h, 10 µM / %>
91.5

$$$$
>  <MOLECULE>
CC(C)c1ccc(CN2CCC3(CC2)CN(CCO)c2ccccc23)cc1

>  <viability at 28.5 h, 10 µM / %>
93.4

$$$$
>  <MOLECULE>
NNC(=O)CSc1nnc(-c2ccc(Cl)cc2)n1-c1ccccc1

>  <viability at 28.5 h, 10 µM / %>
81.3

$$$$
>  <MOLECULE>
COc1cccc(C(=O)Nc2cnn(CCCC(=O)O)c2)c1

>  <viability at 28.5 h, 10 µM / %>
89.6

$$$$
